These entries and their values trace back to patent US20230158025A1.

Target: recombinant mouse GALK1 (Mus musculus, UniProt Q9R0N0)
Sequence (Q9R0N0 whole entry): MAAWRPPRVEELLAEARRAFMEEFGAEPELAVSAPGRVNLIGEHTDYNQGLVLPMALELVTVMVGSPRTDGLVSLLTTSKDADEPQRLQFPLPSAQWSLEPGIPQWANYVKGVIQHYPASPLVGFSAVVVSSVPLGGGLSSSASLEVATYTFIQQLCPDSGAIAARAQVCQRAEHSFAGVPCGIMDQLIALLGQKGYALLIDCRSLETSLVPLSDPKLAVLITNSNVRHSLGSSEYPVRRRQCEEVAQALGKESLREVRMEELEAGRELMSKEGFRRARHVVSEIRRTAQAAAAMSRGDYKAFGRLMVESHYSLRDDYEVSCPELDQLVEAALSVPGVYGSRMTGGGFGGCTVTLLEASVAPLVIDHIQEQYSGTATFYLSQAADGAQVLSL
Experiment: mGALK1 biochemical activity assay (Kinase-Glo Plus, ATP depletion)
Details: recombinant mouse GALK1, Kinase-Glo Plus ATP depletion; read-out: mGALK
Give pIC50 for every item shown.
Just so you know, pIC50 here is -log10 of the concentration in molar units; reply with that number alone.

What reported pIC50 corresponds to COC(=O)c1cccc(NC(=O)C2=C(C)NC(Nc3nc4ccccc4o3)=NC2c2ccccc2Cl)n1 (stereo not drawn) on recombinant mouse GALK1 (Mus musculus, UniProt Q9R0N0)? 4.91

What reported pIC50 corresponds to CC1=C(C(=O)Nc2cccc(CO)c2)C(c2ccccc2Cl)N=C(Nc2nc3ccccc3o2)N1 (stereo not drawn) on recombinant mouse GALK1 (Mus musculus, UniProt Q9R0N0)? 5.01

What reported pIC50 corresponds to CC1=C(C(=O)Nc2cccc(F)c2)C(c2ccccc2Cl)N=C(Nc2nc3ccccc3o2)N1 (stereo not drawn) on recombinant mouse GALK1 (Mus musculus, UniProt Q9R0N0)? 4.91

What reported pIC50 corresponds to CC1=C(C(=O)Nc2cc(B(O)O)ccn2)C(c2ccc(C)cc2Cl)N=C(Nc2nc3ccc(F)cc3o2)N1 (stereo not drawn) on recombinant mouse GALK1 (Mus musculus, UniProt Q9R0N0)? 4.96

What reported pIC50 corresponds to CCn1cc(CNC(=O)C2=C(C)NC(Nc3nc4cccc(N)c4o3)=NC2c2ccc(Cl)cc2Cl)cn1 (stereo not drawn) on recombinant mouse GALK1 (Mus musculus, UniProt Q9R0N0)? 5.06

What reported pIC50 corresponds to CC1=C(C(=O)Nc2cc(C(N)=O)ccn2)C(c2ccccc2Cl)N=C(Nc2nc3ccccc3o2)N1 (stereo not drawn) on recombinant mouse GALK1 (Mus musculus, UniProt Q9R0N0)? 5.11

What reported pIC50 corresponds to CC1=C(C(=O)NCc2ccc(C(=O)O)cc2)C(c2ccccc2Cl)N=C(Nc2nc3ccccc3o2)N1 (stereo not drawn) on recombinant mouse GALK1 (Mus musculus, UniProt Q9R0N0)? 4.96

What reported pIC50 corresponds to COC(=O)c1ccc(NC(=O)C2=C(C)NC(Nc3nc4ccccc4o3)=NC2c2ccccc2Cl)cc1 (stereo not drawn) on recombinant mouse GALK1 (Mus musculus, UniProt Q9R0N0)? 5.01

What reported pIC50 corresponds to CC1=C(C(=O)NCc2nc3ccccc3n2C)C(c2ccccc2Cl)N=C(Nc2nc3ccccc3o2)N1 (stereo not drawn) on recombinant mouse GALK1 (Mus musculus, UniProt Q9R0N0)? 4.86
